tested on: OVCAR-3 ovarian; experiment: NCI tumour cell line growth inhibition, 48 h
OBSERVABLE: TGI (µM)
A number alone suffices; assume µM.

Worked set:
COCCOc1ccc(-c2nc3ccc(-c4nc5ccc(N6CCN(C)CC6)cc5[nH]4)cc3[nH]2)cc1: 3.13
Nc1ccccc1SC(CC(=O)c1ccccc1)c1cccc([N+](=O)[O-])c1 (stereo not given): 25.8
CCCOc1cc2ccccc2cc1C(=O)Nc1nc(N)c2c(ccc3nccc32)[nH]1: 0.0819

## Task What does the data say about its TGI? Entry: `Nc1c(C(=O)Nc2cccc(C(F)(F)F)c2)sc2nc3c(cc12)CCCCC3`
## Result 11.5

---

tested on: SK-MEL-5 melanoma; assay: NCI tumour cell line growth inhibition, 48 h
Each entry below carries its reported GI50.

Nc1ccccc1SC(CC(=O)c1ccccc1)c1cccc([N+](=O)[O-])c1 (stereo not given): 15.4 µM
N#Cc1c[nH]n2c(N=Nc3ccc(Cl)cc3)c(O)nc12: 20.8 µM
COc1ccc(/C=N/NC(=O)c2cccc3cc[nH]c23)cc1O: 1.27 µM

## Task GI50 lookup needed for `N#CC(C#N)=C/C=C(\Sc1nc2ccccc2s1)c1ccc(Cl)cc1` , thanks.
## Result 10.4 µM

## Task Quick one: GI50 of `N[C@@H]1CCCC[C@@H]1N.O=P([O-])([O-])CN(CCN(CP(=O)([O-])[O-])CP(=O)([O-])[O-])CP(=O)([O-])[O-].[Pt+2]` ?
## Result > 25 µM

---

test system: U251 CNS; test: NCI tumour cell line growth inhibition, 48 h
Measured TGI accompanies every entry in the list below.

Some solved entries appear below for comparison.
CC1CN(C)c2ccccc2N=C1NN (stereo unspecified): > 100 µM
CC1(C(=O)O)CCC2(C)CCC3(C)C(=CC(=O)C4C5(C)CCC(O)C(C)(C)C5CCC43C)C2C1 (stereo unspecified): > 100 µM
Nn1c(-c2ccccc2)n[nH]c1=O: > 100 µM
CC(=O)CC(OC(C)=O)C1=CCC2C(CC1C)OC(=O)C2C (stereo unspecified): > 100 µM

## Task Give its TGI value. Item: CCCCN(CCCC)C(=O)C(=O)C(C(=O)c1ccc(OC)cc1)c1ccc(OC)cc1 (stereo unspecified)
## Result > 100 µM

## Task Can you share its TGI? I mean this compound: `Nc1n[nH]c2cccc(C#Cc3cccc(C(=O)Nc4ccc(CN5CCOCC5)c(C(F)(F)F)c4)c3)c12`
## Result 15.2 µM

---

system: OVCAR-5 ovarian; experiment: NCI tumour cell line growth inhibition, 48 h; in the data active means GI50 below about 0.43 µM; inactive means the rest
// allowed return values: active, inactive

Study these solved cases before continuing.
CCCOc1cc2ccccc2cc1C(=O)Nc1nc(N)c2c(ccc3nccc32)[nH]1: inactive
Cn1ccc2c3c(Oc4ccc(NC(N)=O)cc4)ccnc3ccc21: inactive
COc1cccc(-c2nc(-c3ccc(NC(=O)OC(C)C)cc3)[nH]c2-c2ccnc(Br)c2)c1: inactive

## Task Identify the outcome logged in this assay for the molecule shown: `Nc1n[nH]c2cccc(C#Cc3cccc(C(=O)Nc4ccc(CN5CCOCC5)c(C(F)(F)F)c4)c3)c12`
## Result inactive

## Task Recorded call for `CCC(=C/[C@H](C)C/C=C/C(C)=C/[C@@H](C)C(=O)[C@@H](C)[C@H](O)[C@@H](C)CC)/C=C/[C@H]1OC(=O)C=C[C@@H]1C` ?
## Result active

## Task I would be grateful if you could indicate the recorded call for COc1cccc(C(=O)NC(c2ccc(C)cc2)c2cc(Cl)c3cccnc3c2O)c1 (centres undefined) .
## Result inactive

## Task How did this test come out for `Cc1ccc(-n2c3nc(=O)[nH]c(=O)c-3cc3cc([N+](=O)[O-])ccc32)cc1` ?
## Result inactive

## Task Given `O=C(CCCSc1nc(-c2ccccc2)cc(-c2ccccc2)n1)NO` , state the outcome it received in this test.
## Result inactive

## Task Tell me the assay call for `COc1cc(-c2ccc3cc(OC)c(OC)c(OC)c3c2)cc(OC)c1OC` please.
## Result inactive

---

system: BT-549 breast; assay: NCI tumour cell line growth inhibition, 48 h
OBSERVABLE: GI50

Cc1nnc(NC(=O)c2nc(S(=O)(=O)Cc3ccc(F)cc3)ncc2Cl)s1: 2.3 µM

## Task I am curious: what GI50 value has been reported for `O=C(Oc1ccc(Cl)cc1)c1ccccc1Nc1ccnc(C(F)(F)F)c1` ?
## Result 14.9 µM

## Task Find the recorded GI50 belonging to `CC(C)[C@@H]1C=C2CC[C@H]3[C@](C)(CN)CCC[C@]3(C)[C@H]2CC1` and report it.
## Result 16.5 µM

## Task Bench note: what GI50 did `CN(C)c1cc(NN=C(c2ccc(O)cc2)c2ccc(O)cc2)c([N+](=O)[O-])cc1[N+](=O)[O-]` show?
## Result 6.32 µM

## Task # input compound: `Nc1c(C(=O)Nc2cccc(C(F)(F)F)c2)sc2nc3c(cc12)CCCCC3` ; wanted: its GI50
## Result 1.7 µM

## Task # lookup: GI50 of `Nc1n[nH]c2cccc(C#Cc3cccc(C(=O)Nc4ccc(CN5CCOCC5)c(C(F)(F)F)c4)c3)c12`
## Result 2.14 µM

## Task Find the recorded GI50 belonging to `Cn1ccc2c3c(Oc4ccc(NC(N)=O)cc4)ccnc3ccc21` and report it.
## Result > 100 µM

## Task Tell me the measured GI50 of `COC[C@H]1Cn2cc(-c3nc(Nc4ccnn4C)ncc3C)nc2C(=O)N1Cc1ccc(F)c(F)c1` , please.
## Result 48.9 µM

---

tested on: TK-10 renal; experiment: NCI tumour cell line growth inhibition, 48 h
In this section we review reported TGI values for a set of compounds.

COc1cccc(C(=O)NC(c2ccc(C)cc2)c2cc(Cl)c3cccnc3c2O)c1 (configuration not stated): 4.8 µM
COC(=O)C(CCCN1C(=O)c2ccccc2C1=O)C(=O)OC: > 100 µM
Cc1oc2c(cc(O)c3cc(O)ccc32)c2cccc1-2: > 100 µM
COC[C@H]1Cn2cc(-c3nc(Nc4ccnn4C)ncc3C)nc2C(=O)N1Cc1ccc(F)c(F)c1: > 100 µM
COC(=O)CC(c1ccccc1)C1(c2ccccc2)SCCS1 (configuration not stated): > 290 µM

## Task // returns reported TGI for input `CC(=O)NNc1nc(C)c(C(=O)/C=C/c2ccc(NC(C)=O)cc2)s1`
## Result > 100 µM

## Task Give its TGI value. Item: O=C1CCC2(c3ccc(Cl)cc3)Nc3ccncc3N12 (configuration not stated)
## Result > 10 µM

## Task Bench note: what TGI did `N[C@@H]1CCCC[C@@H]1N.O=P([O-])([O-])CN(CCN(CP(=O)([O-])[O-])CP(=O)([O-])[O-])CP(=O)([O-])[O-].[Pt+2]` show?
## Result > 25 µM

---

system: BT-549 breast; experiment: NCI tumour cell line growth inhibition, 48 h
OBSERVABLE: TGI (µM)
// units = µM; emit number, no label

Here are 5 compounds together with their reported answers.
CN(C)CC1CC/C(=C\c2ccc(O)cc2)C1=O (stereo unspecified): 3.73
COc1ccc(CN2C(=O)/C(=C\c3cc(OC)c(OC)c(OC)c3)c3ccccc32)cc1: 7.53
Nc1n[nH]c2cc(F)c([C@@H]3Nc4ccc5[nH]ncc5c4[C@H]4C5CCC(C5)[C@@H]34)cc12 (stereo partly specified): 2.59
CCn1c(-c2nonc2N)nc2c(C#CC(C)(C)O)nc(OC[C@@H](N)c3ccccc3)cc21: 7.48
CCCCCCCCCCCCC(O)c1ccc(C#CCCCCCCCCCO)o1 (stereo unspecified): 42.3

Moving on to the next compound.
## Task Which TGI value is on record for `O=[N+]([O-])c1cc(C=NC23CC4CC(CC(C4)C2)C3)ccc1Cl` ?
## Result 45.3

---

tested on: OVCAR-5 ovarian; experiment: NCI tumour cell line growth inhibition, 48 h
OBSERVABLE: TGI

CC(=O)Oc1cccc2c1C(=O)CCCC2: > 100 µM

## Task For `CCN(C(=O)N1CCN(c2cc3c(cc2F)c(=O)c(C(=O)O)cn3C2CC2)CC1)c1nc(-c2ccc(Cl)cc2)cs1` , what is its reported TGI?
## Result > 100 µM

## Task Entry `Nn1c(Nc2ccc(S(=O)(=O)Nc3ncccn3)cc2)nnc(/C=C/c2c(O)ccc3ccccc23)c1=O` : reported TGI = ?
## Result 91.9 µM

## Task Name the recorded TGI for `O=C(/C=C/c1ccc2c(c1)OCO2)c1ccc(O)cc1` .
## Result 35.1 µM

## Task Given CCOP(=O)(OCC)C(F)(F)c1ccc(CC(NC(=O)OC(C)(C)C)C(=O)O)cc1 (centres undefined) , state its recorded TGI.
## Result > 10 µM

---

tested on: OVCAR-8 ovarian; assay: NCI tumour cell line growth inhibition, 48 h
Known TGI of a selection of compounds

Cc1ccnc(NS(=O)(=O)c2ccc(N=[N+]=[N-])cc2)n1: > 100 µM
c1ccc(Sc2ncnc3ccccc23)cc1: 75.9 µM
N#CC(NCc1cccc(CNC(C#N)c2ccccc2)c1)c1ccccc1 (centres undefined): > 100 µM
N=c1nnc2ccc(Cl)cc2n1O: 92.4 µM

## Task What TGI value was documented for this compound, `Nc1ccc(C2=NNC(=O)Cc3cc4c(cc32)OCCO4)cc1Cl` ?
## Result > 50 µM

## Task Consider the compound shown here: `CCOC(=O)c1c(CN2CCCC2)n(-c2ccccc2)c2cc(Br)c(O)cc12` What is its recorded TGI?
## Result 49.1 µM

## Task Given the compound CC1CN(C)c2ccccc2N=C1NN (centres undefined) , what is its reported TGI?
## Result > 100 µM

## Task Reported TGI, compound `O=C(/C(=C/c1ccc([N+](=O)[O-])cc1)SCc1ccccc1)c1ccc(Cl)cc1` : ____
## Result 15.2 µM

Data origin, for the record: PubChem BioAssay (NCI)
